- Test: Stat Signaling Pathway (AID 446);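 further: ME-180 cervical cancer cells given 40 pM IL-6 alongside compound; SIE-controlled beta-lactamase reporter measured as 460/530 nm FRET emission ratio; on the % scale 0 is the no-effect control and ±100 the full control effect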
- Assay Conditions: ME-180 (cervical carcinoma) SIE beta-lactamase reporter, IL-6 stimulated, 5 h; at 7.69 µM (top of the series) unless noted
Inconclusive results are not listed.
Recorded activity, negative = inhibition, one value per entry.
Answer with a number only, understood to be in %.

>>> df
                  compound_structure_string  reading_unit  result_number
0           N#Cc1cccc(-c2cncnc2NCc2cccs2)c1             %           3.27
1   Cc1nc2cnc(N3CCNCC3)nc2n(CCc2ccccc2)c1=O             %          -13.8
2  O=C(c1cccc(F)c1)N1CCC2(CCCN(c3ncccn3)C2)CC1             %          -4.43
3       Clc1ccccc1-c1nc(N2CCNCC2)c2ccccc2n1             %           9.64
4       FC(F)(F)c1ccccc1-c1cc(N2CCNCC2)ncn1             %           3.09

Consider now this further compound.
Name the reported activity, negative = inhibition value associated with the compound `CN1CCN(c2ncnc3ccc(-c4ccc(C(=O)N(C)C)cc4)cc23)CC1`
-6.95
